// provenance: the supplement of paper PMC4862054

system: BT-549; experiment: drug sensitivity score (DSS), CellTiter-Glo (DSS (AUC-based score)); higher = stronger drug effect (viability inhibition or cytotoxicity); extreme values may be limits of the assay; conditions: incubation time: 72 h
Short version: drug sensitivity score at least 7 is T, less is F.

Solved entries:
# compound, label
rows = [
    ("COc1cc(O)c2c(c1)/C=C/C[C@H](O)[C@H](O)C(=O)/C=C\\C[C@H](C)OC2=O [(5Z)-7-Oxozeaenol]", "T"),
    ("O=C(/C=C/c1cccc(S(=O)(=O)Nc2ccccc2)c1)NO [Belinostat]", "T"),
    ("Cc1cc(Nc2cc(CN3CCOCC3)c3nc(C)c(Cc4ccc(Cl)cc4F)n3n2)n[nH]1 [Gandotinib]", "F"),
    ("N#Cc1ccc(COC[C@H]2O[C@@H](n3c(NCc4ccc(Cl)c(Cl)c4)nc4c(N)ncnc43)[C@H](O)[C@@H]2O)cc1", "F"),
    ("CCOC(=O)CCNc1cc(N2CCc3ccccc3CC2)nc(-c2ccccn2)n1 [GSK-J4]", "T"),
    ("CC(C)C[C@@H](C(=O)N[C@H](C(=O)OC1CCCC1)c1ccccc1)[C@H](O)C(=O)NO [Tosedostat]", "T"),
]

Then there is this compound:
Test whether the compound Cc1ccc(NC(=O)c2ccc(CN3CCN(C)CC3)cc2)cc1Nc1nc(-c2cccnc2)cs1 [Masitinib] records drug sensitivity score of 7 or higher. F

====

system: DU-4475; assay: normalised response (% of control), CellTox Green; higher = less cell death (100 = DMSO, 0 = benzethonium chloride kill control); conditions: incubation time: 72 h
# key: entry, value: normalised response
Provide the reading as a plain figure in %.

# compound, normalised response, %
data = [
    ("S=P(N1CC1)(N1CC1)N1CC1 [Thio-TEPA] (5000 nM)", 99.2),
    ("c1ccc2c(CCNc3ccc(Nc4ccncc4)cc3)c[nH]c2c1 [Serdemetan] (100 nM)", 100),
    ("Cc1cc(Nc2cc(CN3CCOCC3)c3nc(C)c(Cc4ccc(Cl)cc4F)n3n2)n[nH]1 [Gandotinib] (10000 nM)", 103),
    ("Cc1ccc(NC(=O)c2ccc(CN3CCN(C)CC3)cc2)cc1Nc1nc(-c2cccnc2)cs1 [Masitinib] (1000 nM)", 100),
    ("CC(C)C[C@@H](C(=O)N[C@H](C(=O)OC1CCCC1)c1ccccc1)[C@H](O)C(=O)NO [Tosedostat] (100 nM)", 102),
]

Recorded normalised response for Nc1cc(C(F)(F)F)c(-c2cc(N3CCOCC3)nc(N3CCOCC3)n2)cn1 [Buparlisib] (1000 nM) , please? 95.6

Need normalised response of Nc1cc(C(F)(F)F)c(-c2cc(N3CCOCC3)nc(N3CCOCC3)n2)cn1 [Buparlisib] (10000 nM) , thanks. 95.8

May I ask what normalised response has been recorded for O=P1(N(CCCl)CCCl)NCCCO1 (stereo not given) [Cyclophosphamide] (40000 nM) ? 100

Would you mind telling me what normalised response value was observed for Cc1ccc(NC(=O)c2ccc(CN3CCN(C)CC3)cc2)cc1Nc1nc(-c2cccnc2)cs1 [Masitinib] (10000 nM) ? 100

Which value of normalised response has been reported for Nc1cc(C(F)(F)F)c(-c2cc(N3CCOCC3)nc(N3CCOCC3)n2)cn1 [Buparlisib] (100 nM) in the records? 98.6
